Quick reference: z-score of the listed items.
Experiment: changes in parasitized red cell lysis, either direction – P. falciparum Indochina, OD700, 3 h, PSAC antagonist project, primary screen (AID 1156)
Settings: P. falciparum-infected erythrocytes, osmotic lysis; higher = more signal, called active from +8 up or from −8 down unless noted

compound | z-score
CN1CCc2nc(CO)c(CO)cc2C1 | -0.508
CCCC=C(CCC)[C@@H](NP(=O)(c1ccccc1)c1ccccc1)c1ccccc1 | 0.689
C[C@@H]1Cc2c(cnc3c2CN(C)CC3)CO1 | 0.123
CCCc1cc2c(n1CCO)C(C)C1CN(C(=O)c3ccccc3)C(C)(C(=O)OC)C21 (centres undefined) | 0.101
COC(=O)[C@H]1C(=O)c2ccccc2O[C@@](C(=O)OC)(c2ccccc2)[C@@H]1c1ccccc1 | -0.591
OCc1ccc(C2=CC(C3CC3)N(Cc3sc4ccccc4c3Cl)CC2)cc1 (centres undefined) | 0.258
C=C(CC1(CNP(=O)(c2ccccc2)c2ccccc2)CC1)c1ccccc1 | 1.07
OCc1ccc(C2=CC(c3cccs3)N(Cc3cccc(OC(F)(F)F)c3)CC2)cc1 (centres undefined) | -0.18
C[C@H]1O[C@H]2C3=C(C(=O)[C@@H]4O[C@@H]4[C@@H]3O)[C@@H]1[C@@H]1[C@@H](C)OC=C3[C@@H](O)[C@H]4O[C@H]4C(=O)[C@]312 | 0.276

* * *

Target: Concanavalin-A (Canavalia ensiformis)
Experiment: compounds binding concanavalin A lectin – biochemical, small-molecule microarray, Alexa647 label, 635 nm, artefact control for SMM control protein annotation, primary screen (AID 1127);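 note: z combines 667 nm emission intensity with signal-to-noise across three replicate slides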
Conditions: ConA-A647 binding fluorescence, higher = more signal
endpoint.label: composite z-score

molecule | reported.value
CN1CCC(c2ccc(CO)cc2)=CC1c1cccs1 (configuration not stated) | 0.199
CCCC[C@@H]1C[C@H]1[C@@H](NP(=O)(c1ccccc1)c1ccccc1)c1ccc(Cl)cc1 | 0.302
COc1cc2c(cc1O)C=[N+](C)CC2 | -1.48
C[C@@H]1OC=C2[C@@H](O)[C@H]3O[C@H]3C(=O)[C@]23[C@H]1[C@H]1C2=C([C@@H](O)[C@H]4O[C@H]4C2=O)[C@@H]3O[C@@H]1C | -0.66
C[C@@H]1Cc2c(cnc3c2CN(C)CC3)CO1 | -1.28
c1ccc(-c2cc3c(nc2-c2ccccc2)CCNC3)cc1 | -0.269
C=C(CC1(CNP(=O)(c2ccccc2)c2ccccc2)CC1)c1ccccc1 | -0.139
COC(=O)[C@H]1[C@H](c2ccccc2)C(=O)[C@]2(O)c3ccccc3O[C@@]12c1ccccc1 | 0.711
COC(=O)[C@@]1(Cc2ccccc2)[C@H]2c3cc(C(=O)N(C)C)n(C)c3C[C@H]2CN1C(=O)c1ccccc1 | 0.396
CCOC(=O)[C@H]1CC=C2C(=O)Oc3ccccc3[C@@H]21 | 0.122
O=P(c1ccccc1)(c1ccccc1)N1CC2(CC2)CC(O)(c2ccccc2)C1 (configuration not stated) | 0.462
COC(=O)[C@@]1(Cc2ccc(F)cc2)[C@H]2c3cc(C(=O)N(C)C)[nH]c3C[C@H]2CN1C(=O)c1ccccc1 | 0.419

* * *

Assay: resazurin metabolic signal in A549 cells – cell-based, resazurin fluorescence, 24 h, PK04 Diversity Set, profiling panel (AID 1171); note: test concentration not given here
Settings: A549 viability; higher = more signal, called active from +8 up or from −8 down unless noted
Response field label: string, one of Yes (z-score strictly below 0.4) or No.

compound | discrete.label
CCCc1cc2c(n1CCO)C(C)C1CN(C(=O)c3ccccc3)C(C)(C(=O)OC)C21 (stereo unspecified) | Yes
CCc1cc2c(nc1CC)CCN(CCC(C)=NOC)C2 | Yes
O=P(c1ccccc1)(c1ccccc1)N1CC2(CC2)CC(O)(c2ccccc2)C1 (stereo unspecified) | Yes
C[C@@H]1OC=C2[C@@H](O)[C@H]3O[C@H]3C(=O)[C@]23[C@H]1[C@H]1C2=C([C@@H](O)[C@H]4O[C@H]4C2=O)[C@@H]3O[C@@H]1C | No
COc1cc2c(cc1O)C=[N+](C)CC2 | Yes
OCc1ccc(C2=CC(c3cccs3)N(Cc3cccc(OC(F)(F)F)c3)CC2)cc1 (stereo unspecified) | No
COC(=O)[C@H]1[C@@H](O)[C@@]2(O)c3c(OC)cc(OC)cc3O[C@@]2(c2ccc(OC)cc2)[C@@H]1c1ccccc1 | Yes
CCCc1cc2c(n1Cc1cccc(Cl)c1)C(C)C1CN(C(=O)c3ccccc3)C(C)(C(=O)OC)C21 (stereo unspecified) | Yes
C[C@@H]1Cc2c(cnc3c2CN(C)CC3)CO1 | No
CCOC(=O)[C@H]1CC=C2C(=O)Oc3ccccc3[C@@H]21 | No
C=C(CC1(C(C)NP(=O)(c2ccccc2)c2ccccc2)CC1)c1ccccc1 (stereo unspecified) | No

* * *

Test: viability profiling in MM1S myeloma cells – cell-based, resazurin fluorescence, basal, 24 h, PK04 Diversity Set, profiling panel (AID 1174);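 note: MM1S multiple myeloma cell line; test concentration not given here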
Conditions: higher = more signal, called active from +8 up or from −8 down unless noted
Active and inactive are the calls of the source.

compound | z-score
COC(=O)[C@@]1(Cc2ccc(F)cc2)[C@H]2c3cc(C(=O)N(C)C)[nH]c3C[C@H]2CN1C(=O)c1ccccc1 | -0.811 [setting not given] (inactive)
COc1cc2c(cc1O)C=[N+](C)CC2 | -0.765 (inactive)
OCc1ccc(C2=CC(c3cccs3)N(Cc3cccc(OC(F)(F)F)c3)CC2)cc1 (centres undefined) | -0.126 (inactive)
COC(=O)NCC=Cc1nc(CCC=CC(=O)O[C@H]2CC3CC(=O)O[C@@H](C=CCC(C)C)C[C@@H]4CC[C@H](C)[C@@H](C[C@@H](OC)C[C@H](C2)O3)O4)co1 | -2.04 (inactive)

* * *

Test system: glycogen synthase kinase-3 (GSK3A per assay name; protocol says GSK3B)
Assay: compounds binding glycogen synthase kinase-3 – biochemical, small-molecule microarray, 635 nm fluorescence, GSK3A, primary screen (AID 1103); note: the record names both GSK3A and GSK3B
Conditions: fluorescence 635 nm, higher = more signal

molecule | composite z-score
C[C@@H]1OC=C2[C@@H](O)[C@H]3O[C@H]3C(=O)[C@]23[C@H]1[C@H]1C2=C([C@@H](O)[C@H]4O[C@H]4C2=O)[C@@H]3O[C@@H]1C | -0.349
CCOC(=O)[C@H]1CC=C2C(=O)Oc3ccc(Br)cc3[C@@H]21 | 0.254
COc1cc2c(cc1O)C=[N+](C)CC2 | -0.11
CN1CCC(c2ccc(CO)cc2)=CC1c1cccs1 (configuration not stated) | -0.323
C=C(CC1(CNP(=O)(c2ccccc2)c2ccccc2)CC1)c1ccccc1 | -0.383
COC(=O)[C@H]1[C@@H](O)[C@@]2(O)c3c(OC)cc(OC)cc3O[C@@]2(c2ccc(OC)cc2)[C@@H]1c1ccccc1 | 0.586
COc1cc2c(cc1O)C(C)N(C)CC2 (configuration not stated) | -0.951

* * *

Target: NADPH oxidase 4 (Homo sapiens)
Test: compounds shifting NOX4 Amplex Red fluorescence – cell-based, HEK293-NOX4, tetracycline-induced, NOX inhibitor project, primary screen (AID 1160)
Conditions: HEK293-NOX4, Amplex Red H2O2 fluorescence, 45 min; higher = more signal, called active from +8 up or from −8 down unless noted
Active and inactive are the calls of the source.
Recorded z-score values for a group of compounds are listed next.

compound | z-score
CCc1cc2c(nc1CC)CCN(CCC(C)=NOC)C2 | -1.48 (inactive)
c1ccc(-c2cc3c(nc2-c2ccccc2)CCNC3)cc1 | 0.286 (inactive)
C[C@@H]1OC=C2[C@@H](O)[C@H]3O[C@H]3C(=O)[C@]23[C@H]1[C@H]1C2=C([C@@H](O)[C@H]4O[C@H]4C2=O)[C@@H]3O[C@@H]1C | 0.214 (inactive)
C=C(CC1(C(C)NP(=O)(c2ccccc2)c2ccccc2)CC1)c1ccccc1 (stereo not given) | -3.69 (inactive)
CCCc1cc2c(n1Cc1cccc(Cl)c1)C(C)C1CN(C(=O)c3ccccc3)C(C)(C(=O)OC)C21 (stereo not given) | -2.3 (inactive)
CN1CCC(c2ccc(CO)cc2)=CC1c1cccs1 (stereo not given) | -1.01 (inactive)
COC(=O)[C@@]1(Cc2ccc(F)cc2)[C@H]2c3cc(C(=O)N(C)C)[nH]c3C[C@H]2CN1C(=O)c1ccccc1 | 0.502 [setting not given] (inactive)
C=C(CC1(CNP(=O)(c2ccccc2)c2ccccc2)CC1)c1ccccc1 | -0.4 (inactive)
COC(=O)[C@H]1[C@H](c2ccccc2)C(=O)[C@]2(O)c3ccccc3O[C@@]12c1ccccc1 | -1.55 (inactive)
OCc1ccc(C2=CC(C3CC3)N(Cc3sc4ccccc4c3Cl)CC2)cc1 (stereo not given) | -1.07 (inactive)
CN1CCc2nc(CO)c(CO)cc2C1 | -1.25 (inactive)
CCCC[C@@H]1C[C@H]1[C@@H](NP(=O)(c1ccccc1)c1ccccc1)c1ccc(Cl)cc1 | -1.56 (inactive)
C[C@H]1O[C@H]2C3=C(C(=O)[C@@H]4O[C@@H]4[C@@H]3O)[C@@H]1[C@@H]1[C@@H](C)OC=C3[C@@H](O)[C@H]4O[C@H]4C(=O)[C@]312 | -0.0614 (inactive)
CCCc1cc2c(n1Cc1ccco1)C(C)C1CN(C(=O)c3ccccc3)C(C)(C(=O)OC)C21 (stereo not given) | -6.73 (inactive)
COC(=O)[C@@]1(Cc2ccccc2)[C@H]2c3cc(C(=O)N(C)C)n(C)c3C[C@H]2CN1C(=O)c1ccccc1 | -0.0833 (inactive)
COc1cc2c(cc1O)C=[N+](C)CC2 | -2.03 (inactive)
COC(=O)C1(C)C=C2C(=C(C)C(=O)C2C)CN1 (stereo not given) | -2.31 (inactive)
COC(=O)[C@@]1(Cc2ccccc2)[C@H]2c3cc(C(=O)N(C)C)[nH]c3C[C@H]2CN1C(=O)c1ccccc1 | 0.0256 (inactive)
CCOC(=O)[C@H]1CC=C2C(=O)Oc3ccc(Br)cc3[C@@H]21 | -1.75 (inactive)
COC(=O)[C@H]1[C@@H](O)[C@@]2(O)c3c(OC)cc(OC)cc3O[C@@]2(c2ccc(OC)cc2)[C@@H]1c1ccccc1 | -0.0152 (inactive)
